Value source: patent US20100144886A1

Target: L-type calcium channel binding (CCB) site (Rattus norvegicus, UniProt P22002)
Sequence (P22002 whole entry): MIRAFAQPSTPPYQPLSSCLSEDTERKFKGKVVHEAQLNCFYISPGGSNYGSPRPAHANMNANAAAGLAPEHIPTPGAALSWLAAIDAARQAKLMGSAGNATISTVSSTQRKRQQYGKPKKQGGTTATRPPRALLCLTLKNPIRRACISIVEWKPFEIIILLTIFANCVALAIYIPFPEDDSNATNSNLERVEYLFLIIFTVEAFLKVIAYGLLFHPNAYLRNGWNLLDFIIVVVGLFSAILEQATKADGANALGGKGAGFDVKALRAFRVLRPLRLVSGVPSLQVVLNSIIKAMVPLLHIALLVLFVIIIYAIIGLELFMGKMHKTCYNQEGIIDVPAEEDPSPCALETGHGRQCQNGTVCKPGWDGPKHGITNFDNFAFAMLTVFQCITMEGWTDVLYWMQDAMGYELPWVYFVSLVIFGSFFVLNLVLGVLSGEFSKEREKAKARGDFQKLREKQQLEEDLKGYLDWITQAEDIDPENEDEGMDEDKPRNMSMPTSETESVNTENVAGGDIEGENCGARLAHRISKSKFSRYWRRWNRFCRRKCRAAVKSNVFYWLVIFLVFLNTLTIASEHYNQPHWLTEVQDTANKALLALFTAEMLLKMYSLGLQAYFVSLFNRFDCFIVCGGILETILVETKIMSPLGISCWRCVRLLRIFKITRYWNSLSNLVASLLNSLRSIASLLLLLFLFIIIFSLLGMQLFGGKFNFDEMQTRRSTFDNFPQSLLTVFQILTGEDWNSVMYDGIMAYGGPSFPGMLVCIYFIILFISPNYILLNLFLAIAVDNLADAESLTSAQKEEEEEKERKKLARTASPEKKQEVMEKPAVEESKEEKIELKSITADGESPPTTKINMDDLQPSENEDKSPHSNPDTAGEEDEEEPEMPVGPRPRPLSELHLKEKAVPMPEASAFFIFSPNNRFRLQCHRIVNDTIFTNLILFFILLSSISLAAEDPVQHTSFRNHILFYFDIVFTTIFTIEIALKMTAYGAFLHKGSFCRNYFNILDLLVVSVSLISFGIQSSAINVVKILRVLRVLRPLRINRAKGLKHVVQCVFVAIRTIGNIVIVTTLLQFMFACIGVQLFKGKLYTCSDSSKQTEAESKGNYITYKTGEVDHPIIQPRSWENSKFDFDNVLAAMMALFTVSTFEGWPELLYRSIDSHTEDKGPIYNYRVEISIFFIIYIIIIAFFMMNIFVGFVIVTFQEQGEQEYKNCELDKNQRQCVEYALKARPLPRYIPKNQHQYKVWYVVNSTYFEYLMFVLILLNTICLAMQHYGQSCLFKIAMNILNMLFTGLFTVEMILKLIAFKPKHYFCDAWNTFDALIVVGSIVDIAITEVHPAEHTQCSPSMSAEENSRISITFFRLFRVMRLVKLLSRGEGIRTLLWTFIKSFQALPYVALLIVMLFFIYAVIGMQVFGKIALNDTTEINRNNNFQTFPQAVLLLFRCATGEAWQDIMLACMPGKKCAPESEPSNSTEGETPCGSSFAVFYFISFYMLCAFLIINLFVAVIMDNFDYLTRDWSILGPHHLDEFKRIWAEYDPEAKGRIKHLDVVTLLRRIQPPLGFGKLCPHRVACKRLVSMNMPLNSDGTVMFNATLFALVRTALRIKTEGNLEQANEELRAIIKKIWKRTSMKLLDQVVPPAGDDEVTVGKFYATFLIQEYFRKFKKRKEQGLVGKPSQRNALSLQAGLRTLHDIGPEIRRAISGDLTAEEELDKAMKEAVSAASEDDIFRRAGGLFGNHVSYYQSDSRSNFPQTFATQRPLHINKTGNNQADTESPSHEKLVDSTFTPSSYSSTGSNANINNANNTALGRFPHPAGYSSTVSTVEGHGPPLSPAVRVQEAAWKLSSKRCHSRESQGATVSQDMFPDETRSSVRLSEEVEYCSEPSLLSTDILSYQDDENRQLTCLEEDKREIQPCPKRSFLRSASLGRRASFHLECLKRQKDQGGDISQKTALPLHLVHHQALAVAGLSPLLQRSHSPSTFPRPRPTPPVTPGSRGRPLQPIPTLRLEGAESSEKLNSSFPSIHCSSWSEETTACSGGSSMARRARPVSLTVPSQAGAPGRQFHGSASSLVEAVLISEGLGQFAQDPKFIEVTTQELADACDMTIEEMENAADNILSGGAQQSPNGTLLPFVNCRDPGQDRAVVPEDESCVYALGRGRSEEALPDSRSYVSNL
Experiment: L-type calcium channel binding (CCB) affinity
Settings: rat cerebral cortex; relevant L-type calcium channel site of each blocker
PARAMETER_MEASURED: IC50
# output: numeric value plus its unit

Exercise: Can you look up the measured IC50 of COC(=O)C1=C(C)NC(C)=C(C(=O)OC(C)C)C1c1cccc2nonc12 (stereo not shown) for me?
Solution: 0.46 nM

----------
Target: Na channel
Experiment: Na channel binding
PARAMETER_MEASURED: IC50
# output: numeric value plus its unit

Exercise: Can you look up the measured IC50 of COc1ccc(CCN(C)CCC[C@](C#N)(c2ccc(OC)c(OC)c2)C(C)C)cc1OC [(R)-verapamil] for me?
Solution: 1.8 µM
